- Tested on: L6
- Experiment Summary: Cytotoxicity against rat L6 cells measured after 72 hrs by alamar blue assay
- Format: cell-based
- Test Parameters: L6, 72 h
Below, each entry is listed with its recorded IC50.
Quantity Measured: IC50

INSERT INTO measurements (test_smiles, readout_value) VALUES
  ('O=C(NCCCNCCCCCCCCCCCCNCCCNC(=O)C(=O)c1c[nH]c2cc(Br)ccc12)C(=O)c1c[nH]c2cc(Br)ccc12.O=C(O)C(F)(F)F.O=C(O)C(F)(F)F', '1.6 µM'),
  ('O=C(NCCCNCCCCCCCCNCCCNC(=O)C(=O)c1c[nH]c2cc(Br)ccc12)C(=O)c1c[nH]c2cc(Br)ccc12.O=C(O)C(F)(F)F.O=C(O)C(F)(F)F', '5.6 µM'),
  ('O=C(NCCCNCCCCCCCCCCNCCCNC(=O)C(=O)c1c[nH]c2cc(Br)ccc12)C(=O)c1c[nH]c2cc(Br)ccc12.O=C(O)C(F)(F)F.O=C(O)C(F)(F)F', '12.4 µM'),
  ('O=C(NCCN1CCOCC1)C(=O)c1c[nH]c2cc(Br)ccc12', '157 µM');
